measured-target: Factor X (FX), P00742
Sequence (P00742 whole entry, looked up): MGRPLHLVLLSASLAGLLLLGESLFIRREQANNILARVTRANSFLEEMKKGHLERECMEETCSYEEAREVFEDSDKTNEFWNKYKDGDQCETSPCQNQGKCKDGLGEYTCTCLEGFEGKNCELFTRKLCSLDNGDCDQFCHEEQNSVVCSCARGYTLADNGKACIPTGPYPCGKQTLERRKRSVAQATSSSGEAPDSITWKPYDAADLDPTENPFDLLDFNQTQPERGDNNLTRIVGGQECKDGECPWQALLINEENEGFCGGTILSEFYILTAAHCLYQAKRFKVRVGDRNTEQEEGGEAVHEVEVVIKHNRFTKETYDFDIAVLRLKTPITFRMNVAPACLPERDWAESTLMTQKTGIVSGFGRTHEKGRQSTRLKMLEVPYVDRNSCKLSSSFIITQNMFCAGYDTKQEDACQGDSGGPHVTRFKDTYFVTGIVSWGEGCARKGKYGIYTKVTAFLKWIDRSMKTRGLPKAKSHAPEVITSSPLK
This section presents proteins with their documented kcat values.

protein: FIXa-I251S/R318Y/R338E/E410N (protein) chain 1: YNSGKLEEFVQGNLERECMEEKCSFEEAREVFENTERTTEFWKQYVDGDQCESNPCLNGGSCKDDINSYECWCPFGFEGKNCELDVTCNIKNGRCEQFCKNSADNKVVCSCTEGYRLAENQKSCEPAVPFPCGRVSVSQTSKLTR chain 2: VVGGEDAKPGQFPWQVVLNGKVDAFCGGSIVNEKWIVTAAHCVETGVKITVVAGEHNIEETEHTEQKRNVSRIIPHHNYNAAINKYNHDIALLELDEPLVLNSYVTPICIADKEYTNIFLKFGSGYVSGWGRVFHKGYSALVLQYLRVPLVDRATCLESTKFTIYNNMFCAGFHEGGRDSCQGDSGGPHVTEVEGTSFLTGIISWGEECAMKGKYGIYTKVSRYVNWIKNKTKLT
unit-symbol: s⁻¹
kcat: 6.2
--
protein: FIXa-Y155F/R318Y/R338E/R403E/E410N (protein) chain 1: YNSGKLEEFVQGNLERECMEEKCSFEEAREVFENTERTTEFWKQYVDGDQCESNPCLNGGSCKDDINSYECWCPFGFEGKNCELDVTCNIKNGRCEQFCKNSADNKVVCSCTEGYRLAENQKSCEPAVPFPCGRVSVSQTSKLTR chain 2: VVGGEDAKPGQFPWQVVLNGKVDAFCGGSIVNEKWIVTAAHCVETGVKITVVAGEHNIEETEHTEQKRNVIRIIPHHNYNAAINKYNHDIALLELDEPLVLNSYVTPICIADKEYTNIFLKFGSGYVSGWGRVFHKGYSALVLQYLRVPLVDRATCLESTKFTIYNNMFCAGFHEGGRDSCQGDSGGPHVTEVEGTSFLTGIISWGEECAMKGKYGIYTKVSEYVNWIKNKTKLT
unit-symbol: s⁻¹
kcat: 5.3
